# Tested on: T-47D breast
# protocol notes: NCI tumour cell line growth inhibition, 48 h
Output True for TGI not less than 90 µM; output False otherwise.

# example entries with known answers
1. C[C@@H](NC(=O)[C@@H](CC(=O)N1CCC(N2CCCCC2)CC1)N1C(=O)[C@@H](N2C(=O)OC[C@@H]2c2ccccc2)[C@H]1/C=C/c1cccc(Cl)c1)c1ccccc1 ... False
2. COc1ccc2c(c1)c1nc3cc(C)c(C)cc3nc1n2CCN(C)C ... False
3. CC1(C)N=C(N)N=C(N)N1c1ccc(CCc2ccc(Cl)cc2S(=O)(=O)F)c(Cl)c1 ... False
4. COc1ccc(N2C(N)=C(C#N)C(C#N)(C#N)C2c2cccc([N+](=O)[O-])c2)cc1 (stereo not given) ... False
5. COc1ccc2oc(=Nc3ccc(F)cc3)c(C(N)=O)cc2c1 ... True
6. CCOC(=O)C1=NN(c2ccc(Cl)cc2)C2=CC(C)=NN(C)C(=S)N21 ... True

Input line: Entry O=C(NN1C(=O)CSC1c1ccco1)c1ccncc1 (stereo not given) : is its TGI no less than 90 µM?
Output line: True

Input line: Entry `CCOC(=O)c1nc2cc(C(F)(F)F)ccc2nc1Nc1ccc(F)cc1` : is its TGI no less than 90 µM?
Output line: True
